# tested_target: CD40L-Mac-1 I-domain interaction (Homo sapiens, UniProt P29965)
# Assay type: binding
No end group written: not given here.
endpoint_name: IC50

Data request: Give IC50 for the following sequence: EQLKKSKTL [M7]
Data returned: 200 to 900 nM
